molecular target: Canine cardiac sarcolemmal vesicle Na+/Ca2+ exchanger (Canis lupus familiaris, UniProt P23685); construct: Canine cardiac sarcolemmal vesicles (0.5 mg/ml) were prepared by centrifugal fractionation; test: Canine cardiac sarcolemmal vesicle Na+/Ca2+ exchanger (Na-dependent 45Ca uptake); details: canine cardiac sarcolemmal vesicles; read-out: Inhibitory activity against Na+/Ca2+ exchange (Na-dependent 45Ca uptake), IC50 value, Cardiac sarcolemma
pIC50: −log10 of the molar value.
observationType: pIC50

>>> quantitativeresult("N=C(N)SCCc1ccc(OCc2ccc([N+](=O)[O-])cc2)cc1 [K-BR7943]")
5.15

---

biological target: renal cortex-derived Na+/Ca2+ exchanger (NCX1) (Rattus norvegicus, UniProt Q01728); assay: Rat renal cortex-derived BLMVs Na+/Ca2+ exchange activity (Na-dependent 45Ca uptake); details: read-out: Inhibitory activity against Na+/Ca2+ exchange (Na-dependent 45Ca uptake), IC50 value, Renal cortex
observationType: IC50 (µM)

>>> quantitativeresult("N=C(N)SCCc1ccc(OCc2ccc([N+](=O)[O-])cc2)cc1")
6.8
